- TESTED_TARGET: T1, recombinant human interleukin-20 (human, UniProt Q9NYY1 25-176)
- T1 sequence: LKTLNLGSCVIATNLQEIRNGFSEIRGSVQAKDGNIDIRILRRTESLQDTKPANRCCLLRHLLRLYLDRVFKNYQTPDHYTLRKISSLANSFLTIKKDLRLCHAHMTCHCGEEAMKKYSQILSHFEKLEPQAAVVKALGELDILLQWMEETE
- METHOD_SUMMARY: cell-based or functional assay
Quick reference: IC50, inhibition of IL20 induced proliferation of BaF-3(hIL20R) at 1e-9M hIL20 (assay 2) of the listed items.
RECORDED_ENDPOINT: IC50, inhibition of IL20 induced proliferation of BaF-3(hIL20R) at 1e-9M hIL20 (assay 2) (µM)

1. human anti-hIL20 monoclonal antibody 5B7 (antibody, human IgG4, V domains shown, described as human IgG4; also called 5B7-wt) VH: QVQLVQSGAEVKRPGASVKVSCKASGYTFSSHIMHWVRQAPGQRLEWMGWINAGYGNTKYSQNFQDRVTITRDTSASTAYMELISLRSEDTAVYYCAREPLWFGELSPHDYYGMDVWGQGTTVTVSS VL: AIQLTQSPSSLSASVGDRVTITCRASQGISSALAWYQQKPGKAPKLLIYDASSLESGVPSRFSGSGSGTDFTLTISSLQPEDFATYYCQQFNSYPLTFGGGTKVEIKR :: 4.54
2. human anti-IL20 antibody C11 (antibody, human IgG1, V domains shown) VH: QVQLVQSGAEVKRPGASVKVSCKASGYTFTNDIIHWVRQAPGQRLEWMGWINAGYGNTQYSQNFQDRVSITRDTSASTAYMELISLRSEDTAVYYCAREPLWFGESSPHDYYGMDVWGQGTTVTVSS VL: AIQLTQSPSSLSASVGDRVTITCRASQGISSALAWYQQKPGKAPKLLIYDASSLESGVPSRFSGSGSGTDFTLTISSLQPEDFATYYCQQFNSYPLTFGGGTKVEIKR :: 2
3. human anti-hIL20 monoclonal antibody 15D2 (antibody, V domains shown, also called 15D2-wt; 15D2 wild-type) VH: QVQLVQSGAEVKRPGASVKVSCKASGYTFTNDIIHWVRQAPGQRLEWMGWINAGYGNTQYSQNFQDRVSITRDTSASTAYMELISLRSEDTAVYYCAREPLWFGESSPHDYYGMDVWGQGTTVTVSS VL: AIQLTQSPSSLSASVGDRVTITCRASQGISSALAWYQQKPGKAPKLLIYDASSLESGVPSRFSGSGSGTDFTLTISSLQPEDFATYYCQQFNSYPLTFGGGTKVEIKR :: 0.42
4. human anti-IL20 antibody 2F6 (antibody, human IgG4, V domains shown) VH: QITLKESGPTLVKPTQTLTLTCTFSGFSFSTNGVGVGWIRQPPGKALEWLALIYWNDDKRYSPSLKSRLTITKDTSKNQVVLTMTNMDPLDTATYYCAHSPFIMVRGVIITFFDFWGQGTLVT VL: VIWMTQSPSLLSASTGDRVTISCRMSQGISSYLAWYQQKPGKAPELLIYAASTLQSGVPSRFSGSGSGTDFTLTISCLQSEDFATYYCQQYYSFPLTFGGGTKVEIKR :: 13.9

Source listed as patent US20130039923A1.
